Parameter: Activity. Scope: all listed entries.
Test system: Tobacco mosaic virus
Protocol text: Antiviral activity against Tobacco mosaic virus (TMV) inoculated on whole Nicotiana tabacum leaves followed by smearing with 100 ug/mL compound solution on left side of leaves assessed as viral infection curative effect measured 3 to 4 days post viral infection
Assay type: functional

[
  {
    "Molecule": "COc1cc2c3c(c4cc(OC)c(OC)cc4c2cc1OC)CN1CCCC1C3.Nc1ccc(S(=O)(=O)O)cc1 (centres undefined)",
    "Output unit": "%",
    "Activity": 34.5
  },
  {
    "Molecule": "COc1ccc2c3c(c4cc(OC)c(OC)cc4c2c1)CC1CCCN1C3 (racemic) [(+/-)-ANTOFINE]",
    "Output unit": "%",
    "Activity": 54.4
  },
  {
    "Molecule": "COc1cc2c3c(c4cc(OC)c(OC)cc4c2cc1OC)CN1CCCC1C3.O=C(O)c1cc(S(=O)(=O)O)ccc1O (centres undefined)",
    "Output unit": "%",
    "Activity": 62.1
  },
  {
    "Molecule": "COc1cc(/C=C/C(=O)O)ccc1O.COc1cc2c3c(c4cc(OC)c(OC)cc4c2cc1OC)CN1CCCC1C3 (centres undefined)",
    "Output unit": "%",
    "Activity": 13.8
  }
]
